Listed below: inhibition at up to 10 µM values for each entry.
- Test system: MDA-MB-231
- measurementDescription: CellTiter-Glo cell proliferation inhibition, MDA-MB-231
- Type: cell-based
- conditionSummary: Homo sapiens; MDA-MB-231 (CTG), incubation time 72 hours (D64 to D69), starting concentration 10 μM; read-out: IH % max (maximum inhibition percentage)
Numbers only here, please. The scale is %.

Here is how some molecules turned out for inhibition at up to 10 µM.
CN(C)C(=O)c1ccc(-c2ccc3ccccc3c2Oc2ccc(OCCN3CCN(c4ccc5c(c4)CN(C4CCC(=O)NC4=O)C5=O)CC3)cc2)cc1 (stereo not drawn) [Compound D68] :: 71.5
CS(=O)(=O)c1ccc(-c2ccc3ccccc3c2Oc2ccc(OC(=O)N3CCN(c4ccc5c(c4)CN(C4CCC(=O)NC4=O)C5=O)CC3)cc2)cc1 (stereo not drawn) [Compound D66] :: 85.4
CN(C)C(=O)c1ccc(-c2ccc3ccccc3c2Oc2ccc(OC(=O)N3CCN(c4ccc5c(c4)CN(C4CCC(=O)NC4=O)C5=O)CC3)cc2)cc1 (stereo not drawn) [Compound D67] :: 79.2
O=C1CCC(N2Cc3cc(N4CCN(CCOc5ccc(Oc6c(-c7ccc(C(=O)N8CCCC8)cc7)ccc7cc(O)ccc67)cc5)CC4)ccc3C2=O)C(=O)N1 (stereo not drawn) [Compound D65] :: 83.6
CNC(=O)c1ccc(-c2ccc3ccccc3c2Oc2ccc(OC(=O)N3CCN(c4ccc5c(c4)CN(C4CCC(=O)NC4=O)C5=O)CC3)cc2)cc1 (stereo not drawn) [Compound D69] :: 91.7

Query: So what's the measured inhibition at up to 10 µM for this one? CNC(=O)c1ccc(-c2ccc3cc(O)ccc3c2Oc2ccc(OCCN3CCN(c4ccc5c(c4)CN(C4CCC(=O)NC4=O)C5=O)CC3)cc2)cc1 (stereo not drawn) [Compound D64]
Reply: 79.8
